Assay Protocol: Rate of inactivation of sterol methyl transferase from Saccharomyces cerevisiae using mechanism based inhibitor
Measured Property: pKi
Give bare numbers, as −log10 of the molar value.

[ask] Which measured pKi value corresponds to CC(C)C(C)CC[C@@H](C)C1CCC2C3=C(CCC21C)C1(C)CCC(O)CC1CC3 (stereo partly specified) ?
[reply] 5.96
